Taken from patent US20240084003A1.

Here, each record is paired with measured OD450 data.
STUDY SYSTEM: T1, monkey CD22 protein (ACROBiosystems, catalog number SI2-R52Ha) (monkey, UniProt F6W485 20-688)
T1 construct: commercial protein; also called monkey CD22-ECD; monkey CD22-ECD-His
T1 sequence: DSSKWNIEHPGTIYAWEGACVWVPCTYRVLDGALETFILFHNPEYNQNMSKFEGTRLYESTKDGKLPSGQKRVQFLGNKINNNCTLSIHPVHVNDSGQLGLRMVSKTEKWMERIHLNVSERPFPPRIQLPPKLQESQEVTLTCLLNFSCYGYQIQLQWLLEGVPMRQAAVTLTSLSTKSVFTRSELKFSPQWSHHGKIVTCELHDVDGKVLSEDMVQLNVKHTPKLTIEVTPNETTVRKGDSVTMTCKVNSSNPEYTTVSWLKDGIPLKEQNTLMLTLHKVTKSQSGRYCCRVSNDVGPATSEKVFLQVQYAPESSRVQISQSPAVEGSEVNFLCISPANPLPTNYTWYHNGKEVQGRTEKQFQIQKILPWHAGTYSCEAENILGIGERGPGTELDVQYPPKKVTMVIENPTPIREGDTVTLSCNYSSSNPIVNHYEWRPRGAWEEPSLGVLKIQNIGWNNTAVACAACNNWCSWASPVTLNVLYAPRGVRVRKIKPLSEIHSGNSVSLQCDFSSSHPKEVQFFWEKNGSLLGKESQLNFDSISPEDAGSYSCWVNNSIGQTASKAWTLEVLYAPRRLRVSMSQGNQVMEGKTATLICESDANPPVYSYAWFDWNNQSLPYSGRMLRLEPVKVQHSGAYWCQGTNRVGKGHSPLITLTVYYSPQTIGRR
ASSAY: ELISA, coated monkey CD22 protein, antibody 0.1 nM
Experimental: In order to detect the binding activity of CD22 human-murine chimeric antibodies to CD22 protein, the purified human CD22-ECD-His protein obtained in Example 2 was diluted with PBS to a final concentration of 2 μg/mL, and then added to 96-well ELISA plate at 100 μl/well. The plate was sealed with plastic film and incubated overnight at 4° C., the plate was washed 2 times with PBS the next day, and then a blocking solution [PBS+2% (w/w) BSA] was added for blocking at room temperature for 2 hours. […]
Hi! Could you send only the number? It should be in OD450, unit omitted.

| BINDER | OD450 (OD450) |
| --- | --- |
| F1.231.15 (antibody, IgG1, V domains shown, human-murine chimeric IgG1 kappa) VH: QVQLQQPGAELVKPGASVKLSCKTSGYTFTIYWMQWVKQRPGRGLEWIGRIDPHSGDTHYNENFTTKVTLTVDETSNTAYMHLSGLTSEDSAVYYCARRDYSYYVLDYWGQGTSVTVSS VL: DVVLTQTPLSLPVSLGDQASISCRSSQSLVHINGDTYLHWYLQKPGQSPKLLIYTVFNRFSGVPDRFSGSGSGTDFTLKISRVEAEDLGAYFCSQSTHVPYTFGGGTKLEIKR | 0.17 |

What the record says about HA22-hIgG1 (antibody, V domains shown) VH: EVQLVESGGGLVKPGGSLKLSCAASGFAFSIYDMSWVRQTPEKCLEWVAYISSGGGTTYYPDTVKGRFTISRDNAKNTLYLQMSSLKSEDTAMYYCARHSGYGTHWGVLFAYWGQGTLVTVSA VL: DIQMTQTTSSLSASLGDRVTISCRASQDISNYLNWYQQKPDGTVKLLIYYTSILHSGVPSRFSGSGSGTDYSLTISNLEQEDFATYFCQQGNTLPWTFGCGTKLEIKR : OD450 is 2.24
